System: 233499-124-R-J3-PDC spheroids with HUVEC/MSC, viability;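 also: spheroids exposed to agents for seven days before readout; percent viability relative to DMSO vehicle control taken as 100%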
assay.remarks: Anticancer human tumor 233499-124-R-J3-PDC patient-derived colon adenocarcinoma cell line growth inhibition [PI3K]
study.conditions: second compound 0.0316 µM; first compound 3.16 µM; hits give low values
readout.name: viability, T/C

Task item: Look up viability, T/C for this compound: Cn1nccc1Nc1nccc(-c2ccn(C(CO)c3ccc(Cl)c(F)c3)c(=O)c2)n1 (stereo not given) + CC(Nc1ncnc2nc[nH]c12)c1cc2cccc(Cl)c2c(=O)n1-c1ccccc1
Reply: 89%

Task item: Look up viability, T/C for this compound: CNC(=O)c1ccc(N2C(=S)N(c3ccc(C#N)c(C(F)(F)F)c3)C(=O)C2(C)C)cc1F + CC(Nc1ccc2c(c1)OCCn1cc(N3C(=O)OCC3C(F)F)nc1-2)C(N)=O
Reply: 88.1%

Task item: Look up viability, T/C for this compound: Cn1nccc1Nc1nccc(-c2ccn(C(CO)c3ccc(Cl)c(F)c3)c(=O)c2)n1 (stereo not given) + COc1c(OCCCN2CCOCC2)ccc2c3n(c(=NC(=O)c4cnc(N)nc4)nc12)CCN3
Reply: 53.7%

Task item: Look up viability, T/C for this compound: CNC(=O)c1ccc(N2C(=S)N(c3ccc(C#N)c(C(F)(F)F)c3)C(=O)C2(C)C)cc1F + Cc1nc(NC(=O)N2CCCC2C(N)=O)sc1-c1ccnc(C(C)(C)C(F)(F)F)c1
Reply: 102%

Task item: Look up viability, T/C for this compound: CCCS(=O)(=O)Nc1ccc(F)c(C(=O)c2c[nH]c3ncc(-c4ccc(Cl)cc4)cc23)c1F + COc1c(OCCCN2CCOCC2)ccc2c3n(c(=NC(=O)c4cnc(N)nc4)nc12)CCN3
Reply: 77.6%

Reference source: PubChem BioAssay AID1963984
